system: HEK-293T; test: Multiplex assay against HEK293T; type: toxicity, cell-based; conditions: human, 24 h, 1 µM, compound concentration 1 uM, replicate 1
endpoint: Population Mitochondria Different-Phenotype (%)

{"columns": ["molecule", "unit annotation", "data value"],
 "data": [
  ["CC(C)c1noc(N2CCC(COc3ccc(-c4ccc(S(C)(=O)=O)cc4)nc3)CC2)n1 [GSK-1292263]", "%", 27],
  ["Cl.N=C(N)NC(=O)Cc1c(Cl)cccc1Cl [GUANFACINE HYDROCHLORIDE]", "%", 27],
  ["CC[C@@H](C)Nc1nc(C)nc2c(-c3ccc(OC)nc3C)c(C)nn12 [PEXACERFONT]", "%", 26],
  ["C[C@H](N)COC(=O)[C@@H](CCCCN)NC(=O)Cc1c(-c2ccc3ccccc3c2)[nH]c2c1ccc1ccccc12", "%", 24],
  ["COC[C@@H](c1ccc(C(F)(F)F)cc1)N1CCN(C2(C)CCN(C(=O)c3c(C)ncnc3C)CC2)C[C@@H]1C.O=C(O)/C=C\\C(=O)O [VICRIVIROC MALEATE]", "%", 24],
  ["CC(/C=C1\\SC(=S)N(CCCC(=O)Nc2ccc(C(=O)O)c(O)c2)C1=O)=C\\c1ccccc1", "%", 28],
  ["CC(=O)Nc1cccc2c1c(Sc1ccc(Cl)cc1)c(C)n2CC(=O)O [AZD1981]", "%", 33],
  ["Cl.NCCc1ccc(O)c(O)c1 [DOPAMINE HYDROCHLORIDE]", "%", 40]
]}

* * *

system: HEK-293T; assay: Multiplex assay against HEK293T; type: toxicity, cell-based; settings: human, 12 h, 1 µM, compound concentration 1 uM, replicate 2
Could you please mark True for values of Population Hoechst High Intensity Objects (%) below 7% and False for values at or above it?

{"columns": ["compound", "study system", "class name"],
 "data": [
  ["CN(C)C(=O)Cn1cc(-c2ccc(-c3cncc4ccccc34)cc2)cn1", "HEK-293T", "True"],
  ["Cl.NCCc1ccc(O)c(O)c1 [DOPAMINE HYDROCHLORIDE]", "HEK-293T", "True"],
  ["CC(C)(C)c1cc(NC(=O)Nc2ccc(-c3cn4c(n3)sc3cc(OCCN5CCOCC5)ccc34)cc2)no1", "HEK-293T", "True"],
  ["CCCCC(=O)N(Cc1ccc(-c2ccccc2-c2nnn[nH]2)cc1)[C@H](C(=O)O)C(C)C", "HEK-293T", "False"],
  ["COc1ccccc1N1CCN(C[C@@H](C(=O)NC(C)(C)C)c2ccccc2)CC1.Cl.Cl", "HEK-293T", "True"],
  ["O=C1[C@H](Cc2ccc(O)cc2)N2C(=O)CCN(C(=O)NCc3ccccc3)[C@H]2CN1Cc1cccc2ccccc12", "HEK-293T", "False"]
]}

* * *

system: Fibroblast; test: Multiplex assay against human fibroblast; type: toxicity, cell-based; details: 12 h, 10 µM, compound concentration 10 uM, replicate 1
Readings of Population Membrane Permeable-Phenotype (%) for the listed compounds
endpoint: Population Membrane Permeable-Phenotype (%)

{"columns": ["structure as smiles", "data value"],
 "data": [
  ["N#Cc1c(Oc2cccc(OS(=O)(=O)CCCC(F)(F)F)c2)cccc1C(F)(F)F", "1%"],
  ["CN[C@@H](C)C(=O)N[C@H](C(=O)N1CCC[C@H]1C(=O)Nc1snnc1-c1ccccc1)C1CCCCC1", "0%"],
  ["NCCc1cn(S(=O)(=O)c2c(Cl)nc3sccn23)c2ccccc12.O=C(O)C(=O)O", "0%"],
  ["COc1cccc2c1c(NS(=O)(=O)c1ccc(Cl)s1)nn2Cc1cccc(CNC(=O)C(C)(C)O)c1", "1%"]
]}

* * *

Readings of Population Mitotic Cells (%) for the listed compounds
tested on: HEK-293T; experiment: Multiplex assay against HEK293T; type: toxicity, cell-based; conditions: human, 48 h, 10 µM, compound concentration 10 uM, replicate 1

{"columns": ["compound", "Population Mitotic Cells (%)"],
 "data": [
  ["CC[C@@H](C)Nc1nc(C)nc2c(-c3ccc(OC)nc3C)c(C)nn12 [PEXACERFONT]", "59%"],
  ["O=C1[C@H](Cc2ccc(O)cc2)N2C(=O)CCN(C(=O)NCc3ccccc3)[C@H]2CN1Cc1cccc2ccccc12", "28%"],
  ["O=C(CCCc1ccccc1)Nc1nc2ccccc2c(=O)s1", "77%"],
  ["COC[C@@H](c1ccc(C(F)(F)F)cc1)N1CCN(C2(C)CCN(C(=O)c3c(C)ncnc3C)CC2)C[C@@H]1C.O=C(O)/C=C\\C(=O)O [VICRIVIROC MALEATE]", "61%"],
  ["COc1cccc2c1c(NS(=O)(=O)c1ccc(Cl)s1)nn2Cc1cccc(CNC(=O)C(C)(C)O)c1", "73%"],
  ["CC(C)(C)c1cc(NC(=O)Nc2ccc(-c3cn4c(n3)sc3cc(OCCN5CCOCC5)ccc34)cc2)no1 [QUIZARTINIB]", "42%"],
  ["Cc1onc(-c2ccccc2Cl)c1C(=O)N(C)c1ccc(Cl)cc1", "66%"],
  ["N#Cc1cc(F)cc(-c2nc(-c3ccc(F)cn3)no2)c1", "60%"],
  ["CN[C@@H](C)C(=O)N[C@H](C(=O)N1CCC[C@H]1C(=O)Nc1snnc1-c1ccccc1)C1CCCCC1 [GDC-0152]", "52%"],
  ["CC(C)COc1ccc(CNC(=O)N(Cc2ccc(F)cc2)C2CCN(C)CC2)cc1 [PIMAVANSERIN]", "24%"],
  ["Cl.N=C(N)NC(=O)Cc1c(Cl)cccc1Cl [GUANFACINE HYDROCHLORIDE]", "52%"],
  ["CC(C)c1noc(N2CCC(COc3ccc(-c4ccc(S(C)(=O)=O)cc4)nc3)CC2)n1 [GSK-1292263]", "67%"],
  ["CCc1cc2cc(NS(=O)(=O)c3ccc(C#N)cc3)ccc2n(CC)c1=O", "73%"],
  ["CCC(=O)N1CCN(c2ccc(-n3c(=O)ccc4cnc5ccc(-c6cnc7ccccc7c6)cc5c43)cc2C(F)(F)F)CC1 [TORIN1]", "43%"],
  ["Cc1c(CC(=O)O)c2cccnc2n1Cc1ccc(S(C)(=O)=O)cc1C(F)(F)F [FEVIPIPRANT]", "70%"],
  ["CCCCC(=O)N(Cc1ccc(-c2ccccc2-c2nnn[nH]2)cc1)[C@H](C(=O)O)C(C)C", "85%"],
  ["Br.CS(=O)(=O)Nc1c(O)ccc2c1CCCC2C1=NCCN1 (configuration not stated)", "65%"]
]}

* * *

Readings of Population Hoechst High Intensity Objects (%) for the listed molecules
system: Fibroblast; assay: Multiplex assay against human fibroblast; type: toxicity, cell-based; settings: 48 h, 1 µM, compound concentration 1 uM, replicate 2
endpoint: Population Hoechst High Intensity Objects (%)

{"columns": ["molecule", "data value"],
 "data": [
  ["CCCCC1=NC2(CCCC2)C(=O)N1Cc1ccc(-c2ccccc2-c2nnn[nH]2)cc1 [IRBESARTAN]", "2%"],
  ["CC(/C=C1\\SC(=S)N(CCCC(=O)Nc2ccc(C(=O)O)c(O)c2)C1=O)=C\\c1ccccc1", "1%"],
  ["N#Cc1cc(F)cc(-c2nc(-c3ccc(F)cn3)no2)c1", "5%"],
  ["O=C1[C@H](Cc2ccc(O)cc2)N2C(=O)CCN(C(=O)NCc3ccccc3)[C@H]2CN1Cc1cccc2ccccc12", "5%"],
  ["O=C(CCCc1ccccc1)Nc1nc2ccccc2c(=O)s1", "2%"]
]}

* * *

Readings of Population Hoechst High Intensity Objects (%) for the listed compounds
test system: HEK-293T; assay: Multiplex assay against HEK293T; type: toxicity, cell-based; conditions: human, 24 h, 10 µM, compound concentration 10 uM, replicate 1
endpoint: Population Hoechst High Intensity Objects (%)

{"columns": ["compound", "data value"],
 "data": [
  ["CCc1cc2cc(NS(=O)(=O)c3ccc(C#N)cc3)ccc2n(CC)c1=O", "6%"],
  ["CCCOc1ccc2[nH]cc(C3=CCNCC3)c2n1.Cl", "7%"],
  ["CC(C)c1noc(N2CCC(COc3ccc(-c4ccc(S(C)(=O)=O)cc4)nc3)CC2)n1", "8%"],
  ["Cc1noc(-c2ccc(-c3ccc(CC(=O)O)cc3)cc2)c1NC(=O)O[C@H](C)c1ccccc1Cl", "8%"],
  ["CN[C@@H](C)C(=O)N[C@H](C(=O)N1CCC[C@H]1C(=O)Nc1snnc1-c1ccccc1)C1CCCCC1", "7%"],
  ["Cc1sc2c(c1C)C(c1ccc(Cl)cc1)=N[C@@H](CC(=O)NCCCCCCCCNC(=O)COc1cccc3c1C(=O)N(C1CCC(=O)NC1=O)C3=O)c1nnc(C)n1-2 (some centres not stated)", "12%"],
  ["Cc1cccc(NC(=O)CN2CCC(c3ccccn3)CC2)c1.Cl.Cl", "7%"],
  ["COc1cccc2c1c(NS(=O)(=O)c1ccc(Cl)s1)nn2Cc1cccc(CNC(=O)C(C)(C)O)c1", "5%"],
  ["N#Cc1c(Oc2cccc(OS(=O)(=O)CCCC(F)(F)F)c2)cccc1C(F)(F)F", "13%"],
  ["CCCCC(=O)N(Cc1ccc(-c2ccccc2-c2nnn[nH]2)cc1)[C@H](C(=O)O)C(C)C", "5%"],
  ["CC(/C=C1\\SC(=S)N(CCCC(=O)Nc2ccc(C(=O)O)c(O)c2)C1=O)=C\\c1ccccc1", "5%"],
  ["Cl.N=C(N)NC(=O)Cc1c(Cl)cccc1Cl [GUANFACINE HYDROCHLORIDE]", "7%"],
  ["COc1ccccc1N1CCN(C[C@@H](C(=O)NC(C)(C)C)c2ccccc2)CC1.Cl.Cl", "7%"],
  ["CC(C)COc1ccc(CNC(=O)N(Cc2ccc(F)cc2)C2CCN(C)CC2)cc1", "27%"],
  ["O=C(NCCN1CCC(n2c(=O)[nH]c3cc(Cl)ccc32)CC1)c1ccc(F)cc1 [HALOPEMIDE]", "8%"],
  ["NCCc1cn(S(=O)(=O)c2c(Cl)nc3sccn23)c2ccccc12.O=C(O)C(=O)O", "34%"],
  ["COC[C@@H](c1ccc(C(F)(F)F)cc1)N1CCN(C2(C)CCN(C(=O)c3c(C)ncnc3C)CC2)C[C@@H]1C.O=C(O)/C=C\\C(=O)O [VICRIVIROC MALEATE]", "6%"]
]}
